Origin of measurements: PubChem BioAssay (NCI)

test system: SNB-75 CNS; assay: NCI-60 one-dose screen, 48 h (100 = growth as untreated, 0 = no growth, -100 = all killed); settings: 10 µM
The panel holds about 83,000 compounds, 20% with a hit somewhere; the sample as a whole holds those more often.
growth reference
Note: unit % is implicit; provide only the numeric part.

Please review the following examples before continuing.
Exercise: Entry O=C1OC(=O)C2C1C1(Cl)C(Cl)=C(Cl)C2(Cl)C2C(=O)OC(=O)C21 (stereo not drawn) , system SNB-75 CNS: what growth was measured?
Solution: 89.1

Exercise: Please tell me: growth of CCOC(=O)C1=C(C)NC(=O)NC1c1cccs1 (stereo not drawn) , system SNB-75 CNS?
Solution: 103

Exercise: Query the reported growth for SNB-75 CNS; item: `C=CCOC(=O)C(=O)OCC=C`
Solution: 102

Continuing:
Exercise: Give growth (SNB-75 CNS) of the following molecule: `COc1cc2nn(-c3ccccc3N)nc2cc1OC`
Solution: 72.6

Exercise: API: value(readout= growth, system= SNB-75 CNS, query= `Cc1ccc(C)n1-c1ccsc1C(=O)NNC(=O)CCl` )
Solution: 112

Exercise: Recorded growth for `O=[N+]([O-])c1ccc(-c2ncc(-c3ccc(Br)cc3)o2)cc1` with SNB-75 CNS, please?
Solution: 122

Exercise: Hello, I am looking for reported growth with SNB-75 CNS for `S=c1nn[nH]c2ccccc12` . Could you help?
Solution: 96.4

Exercise: API: value(readout=growth, system=SNB-75 CNS) for record `C/C(=N\O)C1(O)CCCCC1`
Solution: 91.7

Exercise: Recorded growth for `O=C(O)/C=C/c1ccc2c(c1)CCC2` with SNB-75 CNS, please?
Solution: 100

Exercise: Lab note: need growth with SNB-75 CNS for entry CCCC(C)OCC(=O)O (stereo not drawn) , please look it up.
Solution: 85.8
